In this section, each of the compounds is paired with its reported EC50.
Molecular target: human α7 nAChR (Homo sapiens (Human))
Sequence (P36544 23-502): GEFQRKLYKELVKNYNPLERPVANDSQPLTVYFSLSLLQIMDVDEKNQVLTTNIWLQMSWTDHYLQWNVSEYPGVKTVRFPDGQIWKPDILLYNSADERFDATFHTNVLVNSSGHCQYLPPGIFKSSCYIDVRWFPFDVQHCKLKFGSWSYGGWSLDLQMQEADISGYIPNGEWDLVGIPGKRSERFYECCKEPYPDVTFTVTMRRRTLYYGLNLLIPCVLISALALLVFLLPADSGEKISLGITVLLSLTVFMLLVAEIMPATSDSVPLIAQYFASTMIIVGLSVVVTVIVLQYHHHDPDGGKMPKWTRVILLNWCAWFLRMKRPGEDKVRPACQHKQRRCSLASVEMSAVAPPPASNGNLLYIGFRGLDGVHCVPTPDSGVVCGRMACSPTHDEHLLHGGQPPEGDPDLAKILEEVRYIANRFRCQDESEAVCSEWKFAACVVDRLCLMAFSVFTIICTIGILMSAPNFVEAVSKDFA
Assay: Automated patch-clamp electrophysiology functional assay (Assay A)
Details: IonFlux HT whole-cell population patch, HEK cell line stably expressing human RIC-3 and human α7, 40 μM acetylcholine
Please respond with the number in nM and leave the unit unwritten.

Some compounds with recorded EC50:
NS(=O)(=O)N1CCC2(CC1)C(c1cccc(-c3conc3C3CC3)n1)C2(F)F (single isomer, unassigned) [Example C2] ... 850
NS(=O)(=O)N1CCC2(CC1)[C@H](c1cccc(-c3ccc(C(F)(F)F)cc3)n1)C2(F)F [Example 5] ... 340
NS(=O)(=O)N1CCC2(CC1)CC2c1cccc(-c2ccccc2)n1 (stereo not shown) [Example 3] ... 3000
NS(=O)(=O)N1CCC2(CC1)[C@H](c1nc3ccccc3o1)C2(F)F [Example A3] ... 1000
NS(=O)(=O)N1CCC2(CC1)C(c1cccc(-c3ccccc3)n1)C2(F)F (stereo not shown) [Example 2] ... 1600

Ask: State the recorded EC50 for this entry: NS(=O)(=O)N1CCC2(CC1)[C@H](c1nccc(-c3ccccc3)n1)C2(F)F [Example 4]
Reply: 1900

Ask: Any idea what its EC50 is? The compound is NS(=O)(=O)N1CCC2(CC1)[C@H](c1cccc(-c3ccccc3C3CC3)n1)C2(F)F [Example A2]
Reply: 830

Ask: I'd like to know its EC50. The compound in question is NS(=O)(=O)N1CCC2(CC1)[C@@H](c1cc(-c3ccccc3)ccn1)C2(F)F [Example B2]
Reply: 1700

Ask: // returns reported EC50 for input Cc1ccccc1-c1cccc([C@@H]2C(F)(F)C23CCN(S(N)(=O)=O)CC3)n1 [Example 6]
Reply: 2200

Ask: What value of EC50 has been reported for the following compound? NS(=O)(=O)N1CCC2(CC1)[C@@H](c1cccc(-c3ccc(C(F)(F)F)cc3)n1)C2(F)F [Example B1]
Reply: 4400

Ask: Form field: reported EC50 of NS(=O)(=O)N1CCC2(CC1)C[C@H]2c1nc2ccccc2s1 [Example 1]
Reply: 930

Ask: # get_value(readout='EC50', item= NS(=O)(=O)N1CCC2(CC1)[C@H](c1cc(-c3ccccc3)ccn1)C2(F)F [Example A1] )
Reply: 190

Ask: Would you mind telling me what EC50 value was observed for NS(=O)(=O)N1CCC2(CC1)C(c1cccc(-c3cccc(C(F)(F)F)c3)c1)C2(F)F (racemic) [Example C1] ?
Reply: 430

Source listed as patent US12534458B2.
